Test system: PDE peak B (novel cGMP-specific PDE)
Test: cGMP hydrolysis by PDE peak B from SW-480 cells
Assay type: biochemical, human
QUANTITY KIND: inhibition of peak B / new cGMP-PDE (in words)

| COMPOUND | ENDPOINT RESULT |
| --- | --- |
| COc1ccc(C2CNC(=O)C2)cc1OC1CCCC1 (stereo not shown) [Rolipram] | relatively insensitive |
| CC1(C)C(=O)Nc2ccc(C3=NNC(=O)CC3)cc21 [Indolidan] | relatively insensitive |
| CCOC(=O)C1=C[C@]2(CC)CCCN3CCc4c(n1c1ccccc41)[C@@H]32 [Vinpocetine] | relatively insensitive |
